Quick reference for melting point among some compounds

Look over these answered cases.
>  <COMPOUND>
FC(F)(F)c1cc(C(F)(F)F)n(-c2ccc(Nc3ccncn3)cc2)n1 [Example 886]

>  <melting point>
218 to 219 °C

$$$$
>  <COMPOUND>
CCc1cc(C(F)(F)F)nn1-c1ccc(NCc2ccc(C)s2)cc1 [Example 1248]

>  <melting point>
87 to 89 °C

$$$$

Pending compound:
Item O=C(Nc1ccc(-n2nc(C(F)(F)F)cc2C(F)(F)F)cc1)c1cnccn1 [Example 698] : provide melting point
188 to 189 °C
